# measurementNotes: Brain biodistribution study after IP dosing
# Type: in vivo, C57BL/6J mice
# conditionLabel: male, C57BL/6J, mouse, brain, ip, 2 mg/kg, IP, brain, read-out: Tmax
measurementType: Tmax (min)
Entry rule: numbers only, all in min.

Would you kindly share the measured Tmax for C=C1CC[C@@]2(OCCC)[C@H]3Cc4ccc(O)c5c4[C@@]2(CCN3CC2CC2)[C@H]1O5 [Compound 29] ? 19.2

====

# measurementNotes: Pharmacokinetic study, plasma (IV, PO, IP)
# Assay type: in vivo, C57BL/6J mice
# conditionLabel: male, C57BL/6J, mouse, intraperitoneal; 2-compartment model fitted to IV, PO and IP plasma concentrations
measurementType: clearance (mL/min/kg)
The reply should be a number in mL/min/kg, with the unit left off.

Value lookup for clearance; key = `C=C1CC[C@@]2(OCCC)[C@H]3Cc4ccc(O)c5c4[C@@]2(CCN3CC2CC2)[C@H]1O5` 202

====

# measurementNotes: Brain biodistribution study after IP dosing
# Assay type: in vivo, C57BL/6J mice
# conditionLabel: male, C57BL/6J, mouse, brain, ip, 2 mg/kg, IP dosing; brain; read-out: Tmax in brain (converted)
measurementType: Tmax

What value of Tmax has been reported for the following compound? `C=C1CC[C@@]2(OCCC)[C@H]3Cc4ccc(O)c5c4[C@@]2(CCN3CC2CC2)[C@H]1O5` ~20 min

====

# measurementNotes: Pharmacokinetic study, plasma (IV, PO, IP)
# Type: in vivo, C57BL/6J mice
# conditionLabel: male, C57BL/6J, mouse; IP, 2 mg/kg; plasma; NCA
measurementType: AUC (µM·h)
Kindly provide the numeric value in µM·h only, without the unit symbol.

Quick check: AUC of `C=C1CC[C@@]2(OCCC)[C@H]3Cc4ccc(O)c5c4[C@@]2(CCN3CC2CC2)[C@H]1O5` ? 0.397

====

# measurementNotes: Pharmacokinetic study, plasma (IV, PO, IP)
# Type: in vivo, C57BL/6J mice
# conditionLabel: male, C57BL/6J, mouse; IV, 2 mg/kg; plasma; read-out: Apparent half-life, t½ (converted)
measurementType: half-life (min)
Give just the numeric value; min need not be written.

Would you mind telling me what half-life value was observed for C=C1CC[C@@]2(OCCC)[C@H]3Cc4ccc(O)c5c4[C@@]2(CCN3CC2CC2)[C@H]1O5 [Compound 29] ? 34.8

====

# measurementNotes: Brain biodistribution study after IP dosing
# Format: in vivo, C57BL/6J mice
# conditionLabel: male, C57BL/6J, mouse, brain, ip, 2 mg/kg, IP dosing; brain; mice; read-out: apparent terminal half-life in the brain
measurementType: half-life

// half-life lookup, key: `C=C1CC[C@@]2(OCCC)[C@H]3Cc4ccc(O)c5c4[C@@]2(CCN3CC2CC2)[C@H]1O5` ~1.33 h

====

# measurementNotes: Pharmacokinetic study, plasma (IV, PO, IP)
# Format: in vivo, C57BL/6J mice
# conditionLabel: male, C57BL/6J, mouse; IP, 2 mg/kg; plasma
measurementType: Tmax (min)
Give just the numeric value; min need not be written.

What measured Tmax goes with C=C1CC[C@@]2(OCCC)[C@H]3Cc4ccc(O)c5c4[C@@]2(CCN3CC2CC2)[C@H]1O5 [Compound 29] ? 7.2

====

# measurementNotes: Pharmacokinetic study, plasma (IV, PO, IP)
# Type: in vivo, C57BL/6J mice
# conditionLabel: male, C57BL/6J, mouse, intravenous, oral, intraperitoneal; plasma; mice; read-out: plasma half-life (converted)
measurementType: half-life

# lookup: half-life of C=C1CC[C@@]2(OCCC)[C@H]3Cc4ccc(O)c5c4[C@@]2(CCN3CC2CC2)[C@H]1O5 [Compound 29] 36 to 60 min
